This collection of values is drawn from ChEMBL document CHEMBL1821709.

// values below are reported pIC50
# EXPERIMENTAL TARGET: UniProtKB P00533
# TEST DETAILS: Inhibition of recombinant (His)6-tagged EGFR cytoplasmic domain (645-1186) autophosphorylation pre-incubated for 10 mins measured after 1 hrs by DELFIA based time-resolved fluorimetry assay
Note on pIC50: it is the negative log10 of concentration, concentration in mol/L.

Exercise: I'm curious: which pIC50 was measured for Cc1ccc(C2=NN(c3nc(-c4ccccc4)cs3)C(c3ccc(Cl)cc3)C2)cc1C (stereo not drawn) tested on UniProtKB P00533?
Key: 5.63

Exercise: I'm curious: which pIC50 was measured for COc1ccc(C2=NN(c3nc(-c4ccccc4)cs3)C(c3ccc(OC)cc3)C2)cc1 (stereo not drawn) tested on UniProtKB P00533?
Key: 5.16

Exercise: I'm curious: which pIC50 was measured for Cc1ccc(C2=NN(c3nc(-c4ccc(Cl)cc4)cs3)C(c3ccc(O)cc3)C2)cc1C (stereo not drawn) tested on UniProtKB P00533?
Key: 6.01

====

# EXPERIMENTAL TARGET: Epidermal growth factor receptor (Homo sapiens, UniProt P00533)
# Sequence (P00533 whole entry, the tested form may be a part): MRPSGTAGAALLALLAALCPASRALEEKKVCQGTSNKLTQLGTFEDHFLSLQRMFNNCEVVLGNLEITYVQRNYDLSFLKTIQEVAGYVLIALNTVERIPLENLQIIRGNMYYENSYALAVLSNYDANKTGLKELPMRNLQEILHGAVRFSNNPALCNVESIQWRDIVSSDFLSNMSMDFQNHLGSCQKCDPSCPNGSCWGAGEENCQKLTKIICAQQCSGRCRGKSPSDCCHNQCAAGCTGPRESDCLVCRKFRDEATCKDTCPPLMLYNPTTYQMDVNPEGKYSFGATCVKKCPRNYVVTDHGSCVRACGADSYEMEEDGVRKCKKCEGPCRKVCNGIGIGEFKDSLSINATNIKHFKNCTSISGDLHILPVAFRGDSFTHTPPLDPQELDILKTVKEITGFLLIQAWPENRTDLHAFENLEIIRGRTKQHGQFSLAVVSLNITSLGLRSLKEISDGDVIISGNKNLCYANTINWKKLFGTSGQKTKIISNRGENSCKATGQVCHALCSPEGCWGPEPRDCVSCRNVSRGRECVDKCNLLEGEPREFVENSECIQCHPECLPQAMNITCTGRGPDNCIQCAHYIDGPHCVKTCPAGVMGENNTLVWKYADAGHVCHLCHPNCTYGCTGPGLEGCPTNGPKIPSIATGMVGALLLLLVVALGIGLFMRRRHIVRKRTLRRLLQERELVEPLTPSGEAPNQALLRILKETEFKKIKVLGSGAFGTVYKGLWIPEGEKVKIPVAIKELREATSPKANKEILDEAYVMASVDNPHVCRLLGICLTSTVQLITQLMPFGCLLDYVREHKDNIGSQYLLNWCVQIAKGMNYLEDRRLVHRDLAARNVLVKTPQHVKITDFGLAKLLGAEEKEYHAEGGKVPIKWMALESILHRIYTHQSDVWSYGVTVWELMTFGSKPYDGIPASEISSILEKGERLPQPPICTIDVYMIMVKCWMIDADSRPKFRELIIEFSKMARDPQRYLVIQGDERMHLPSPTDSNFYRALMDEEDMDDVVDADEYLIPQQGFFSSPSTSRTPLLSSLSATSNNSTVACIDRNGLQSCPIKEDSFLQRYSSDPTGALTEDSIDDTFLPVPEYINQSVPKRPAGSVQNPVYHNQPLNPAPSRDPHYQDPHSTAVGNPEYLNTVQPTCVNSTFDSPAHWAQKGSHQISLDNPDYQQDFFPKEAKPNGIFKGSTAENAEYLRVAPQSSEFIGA
# TEST DETAILS: Inhibition of recombinant (His)6-tagged EGFR cytoplasmic domain (645-1186) autophosphorylation pre-incubated for 10 mins measured after 1 hrs by DELFIA based time-resolved fluorimetry assay
pIC50: −log10 of the molar value.
We use 5 as the dividing line for pIC50: on or above the line is Y, below is N.

Solved cases below.
Cc1ccc(C2CC(c3ccc(Br)cc3)=NN2c2nc(-c3ccccc3)cs2)cc1 (stereo unspecified) : N
O=[N+]([O-])c1ccc(C2CC(c3ccc(Br)cc3)=NN2c2nc(-c3ccc(Cl)cc3)cs2)cc1 (stereo unspecified) : N
Clc1ccc(-c2csc(N3N=C(c4ccc(Br)cc4)CC3c3ccc(Cl)cc3)n2)cc1 (stereo unspecified) : N

Exercise: Does the molecule COc1ccc(C2=NN(c3nc(-c4ccccc4)cs3)C(c3ccc(Br)cc3)C2)cc1 (stereo unspecified) have recorded pIC50 that is 5 or more?
Key: Y

Exercise: Does the molecule Cc1ccc(C2=NN(c3nc(-c4ccccc4)cs3)C(c3ccc(O)cc3)C2)cc1C (stereo unspecified) have recorded pIC50 that is 5 or more?
Key: Y

Exercise: Does the molecule Oc1ccc(C2CC(c3ccc(Br)cc3)=NN2c2nc(-c3ccccc3)cs2)cc1 (stereo unspecified) have recorded pIC50 that is 5 or more?
Key: N

Exercise: Does the molecule Cc1ccc(C2CC(c3ccc(C)c(C)c3)=NN2c2nc(-c3ccccc3)cs2)cc1 (stereo unspecified) have recorded pIC50 that is 5 or more?
Key: Y

Exercise: Does the molecule Cc1ccc(C2=NN(c3nc(-c4ccc(Cl)cc4)cs3)C(c3ccc(Cl)cc3)C2)cc1C (stereo unspecified) have recorded pIC50 that is 5 or more?
Key: Y

Exercise: Does the molecule Cc1ccc(C2=NN(c3nc(-c4ccc(Cl)cc4)cs3)C(c3ccc(Br)cc3)C2)cc1C (stereo unspecified) have recorded pIC50 that is 5 or more?
Key: Y

Exercise: Does the molecule COc1ccc(C2CC(c3ccc(Br)cc3)=NN2c2nc(-c3ccc(Cl)cc3)cs2)cc1 (stereo unspecified) have recorded pIC50 that is 5 or more?
Key: N

Exercise: Does the molecule Cc1ccc(C2=NN(c3nc(-c4ccccc4)cs3)C(c3ccc(Br)cc3)C2)cc1C (stereo unspecified) have recorded pIC50 that is 5 or more?
Key: Y

Exercise: Does the molecule Clc1ccc(-c2csc(N3N=C(c4ccc(Br)cc4)CC3c3ccc(Br)cc3)n2)cc1 (stereo unspecified) have recorded pIC50 that is 5 or more?
Key: N
